Target: human SCD5 (Homo sapiens)
Construct: expressed in transfected cells; host or cells: yeast strain with OLE1 deleted, plasmid-borne human SCD5 (selected in SD-Ura)
Sequence (Q86SK9 1-330): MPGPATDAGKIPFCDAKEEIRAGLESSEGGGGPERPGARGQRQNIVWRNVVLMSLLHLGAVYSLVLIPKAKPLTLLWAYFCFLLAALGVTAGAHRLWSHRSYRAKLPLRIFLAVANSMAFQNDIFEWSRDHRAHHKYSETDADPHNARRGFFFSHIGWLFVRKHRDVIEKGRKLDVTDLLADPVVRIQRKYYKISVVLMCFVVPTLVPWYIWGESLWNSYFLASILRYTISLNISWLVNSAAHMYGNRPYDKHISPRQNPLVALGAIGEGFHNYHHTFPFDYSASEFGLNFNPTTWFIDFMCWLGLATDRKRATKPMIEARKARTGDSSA
Assay: Growth inhibition of yeast strain expressing human SCD5 as sole desaturase (OLE1 deleted), OD600 readout
Format: cell-based
Conditions: yeast strain expressing human SCD5 as sole desaturase; growth (OD600) after 40 h at 30° C.; read-out: SCD5 IC50
pIC50: −log10 of the molar value.
Cut-off 7 on pIC50, inclusive. At or above means T; below means F.

input: Can Cn1nc(C(=O)Nc2ccc(COc3ccc(Cl)cc3)cn2)ccc1=O [Compound 670] be said to have pIC50 at or above 7?
output: F

input: Can O=C(Nc1ccc(CO)nc1)c1ccc(Cc2cccc(Cl)c2)cn1 [Compound 132] be said to have pIC50 at or above 7?
output: T

input: Can CN1N=C(C(=O)Nc2ccc(Cc3cccc(CO)c3)cn2)CCC1=O [Compound 436] be said to have pIC50 at or above 7?
output: F

input: Can CCn1nc(C(=O)Nc2ccc(Cc3cccc(F)c3)cn2)ccc1=O [Compound 68] be said to have pIC50 at or above 7?
output: F

input: Can O=C(Nc1ccc(Cc2cccc(F)c2)cn1)c1ccc(=O)n(CC2CC2)n1 [Compound 77] be said to have pIC50 at or above 7?
output: F

input: Can CN1N=C(C(=O)Nc2nc(Cc3cccc(F)c3)ns2)CCC1=O [Compound 408] be said to have pIC50 at or above 7?
output: F

* * *

Biological target: human SCD5 (Homo sapiens)
Construct: expressed in transfected cells; host or cells: yeast strain with OLE1 deleted, plasmid-borne human SCD5 (selected in SD-Ura)
Sequence (Q86SK9 1-330): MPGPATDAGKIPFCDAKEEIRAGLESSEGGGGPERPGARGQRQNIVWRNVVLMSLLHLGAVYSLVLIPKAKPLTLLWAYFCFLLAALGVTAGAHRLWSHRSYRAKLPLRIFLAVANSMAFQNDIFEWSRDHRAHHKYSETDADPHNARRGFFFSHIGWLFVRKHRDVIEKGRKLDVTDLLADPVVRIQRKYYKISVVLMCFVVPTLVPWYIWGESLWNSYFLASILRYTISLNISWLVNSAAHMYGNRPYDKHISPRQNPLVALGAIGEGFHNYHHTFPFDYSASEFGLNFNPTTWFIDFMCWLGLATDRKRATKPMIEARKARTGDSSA
Test: Growth inhibition of yeast strain expressing human SCD5 as sole desaturase (OLE1 deleted), OD600 readout
Type: cell-based
Settings: yeast strain expressing human SCD5 as sole desaturase; growth (OD600) after 40 h at 30° C.; read-out: SCD5 IC50
pIC50: −log10 of the molar value.
Class key for pIC50 values: low bracket = under 6, middle bracket = from 6 up to 7, high bracket = 7 and over

input: Class (by measured pIC50) for `Cn1cc(C(=O)Nc2ccc(Cc3ccc(F)cc3F)cn2)ccc1=O`
output: middle bracket

input: Class (by measured pIC50) for `CN1N=C(C(=O)Oc2ccc(NCc3cccc(Br)c3)nc2)CCC1=O`
output: low bracket

input: Class (by measured pIC50) for `CN1N=C(C(=O)Nc2ccc(Cc3cccc(Cl)c3)nn2)CCC1=O`
output: middle bracket

input: Class (by measured pIC50) for `O=C(Nc1ccc(Cc2cccc(F)c2)nn1)c1ccc2nccn2n1`
output: low bracket

input: Class (by measured pIC50) for `O=C(Nc1ccc(Cc2cccc(F)c2)cn1)c1ccc(CO)nc1`
output: high bracket

input: Class (by measured pIC50) for `Cn1ccc(C(=O)Nc2ccc(Cc3cccc(F)c3)cn2)cc1=O`
output: middle bracket

input: Class (by measured pIC50) for `Cn1cc(C(=O)Nc2ccc(Cc3cccc(Cl)c3)cn2)cc(F)c1=O`
output: high bracket

input: Class (by measured pIC50) for `Cn1cc(-c2cnc(NC(=O)Cc3cccc(F)c3)cn2)ccc1=O`
output: low bracket

input: Class (by measured pIC50) for `Cn1nc(C(=O)Nc2ccc(NCc3cccc(Cl)c3)cn2)ccc1=O`
output: middle bracket

input: Class (by measured pIC50) for `N#Cc1ccc(C(=O)Nc2ccc(Cc3ccc(F)c(F)c3)cn2)nn1`
output: middle bracket

input: Class (by measured pIC50) for `O=C(Nc1ccc(Cc2cccc(Cl)c2)cn1)c1ccn2cnnc2c1`
output: low bracket

input: Class (by measured pIC50) for `O=C(Nc1ncc(Cc2cccc(F)c2)s1)C1=NN(CCO)C(=O)CC1`
output: low bracket

input: Class (by measured pIC50) for `O=C(Nc1ccc(Cc2cccc(Cl)c2)cn1)N1CCn2nccc2C1`
output: low bracket

input: Class (by measured pIC50) for `Cn1cc(C(=O)Nc2ccc(Cc3cccc(Cl)c3)cn2)cn1`
output: high bracket

input: Class (by measured pIC50) for `Cn1cc(C(=O)Nc2ccc(COc3cccc(Cl)c3)cn2)ccc1=O`
output: middle bracket

input: Class (by measured pIC50) for CC(O)c1ccc(C(=O)Nc2ccc(Cc3cccc(Cl)c3)cn2)cn1 (stereo not shown)
output: middle bracket

input: Class (by measured pIC50) for `COc1cccc(Cc2cnc(NC(=O)c3ccc(=O)n(C)n3)s2)c1`
output: high bracket

input: Class (by measured pIC50) for `O=C(Nc1ccc(COc2ccc(F)c(Cl)c2)cn1)c1ccc(=O)n(C2CC2)c1`
output: low bracket

input: Class (by measured pIC50) for CC(O)c1ccc(C(=O)Nc2ccc(Cc3ccc(F)c(F)c3)cn2)cn1 (stereo not shown)
output: middle bracket

input: Class (by measured pIC50) for `CCO/C=C/c1ccc(C(=O)Nc2ccc(Cc3cccc(Cl)c3)cn2)cn1`
output: high bracket

input: Class (by measured pIC50) for `Cc1ncc(C(=O)Nc2ccc(Cc3cc(F)cc(C#N)c3)cn2)cn1`
output: middle bracket

input: Class (by measured pIC50) for `Cn1cc(-c2ccc(C(=O)NCc3cccc(F)c3)nc2)ccc1=O`
output: low bracket

input: Class (by measured pIC50) for `Cn1c(C(=O)Nc2ccc(Cc3cccc(F)c3)cn2)cc(=O)n1C`
output: low bracket

input: Class (by measured pIC50) for `CCn1nc(C(=O)Nc2ccc(Cc3ccc(Cl)c(Cl)c3)cn2)ccc1=O`
output: middle bracket

input: Class (by measured pIC50) for `Cn1nc(C(=O)Nc2ccc(Cc3ccc(Cl)cc3)cn2)ccc1=O`
output: middle bracket

input: Class (by measured pIC50) for `CC(C)c1ccc(Cc2ccc(NC(=O)C3=NN(C)C(=O)CC3)nc2)cc1`
output: low bracket

input: Class (by measured pIC50) for `Cn1nc(C(=O)Nc2ccc(Cc3cccc(F)c3)cn2)cc(Br)c1=O`
output: high bracket

input: Class (by measured pIC50) for `CN1N=C(C(=O)Oc2ccc(NCc3cc(F)cc(C#N)c3)nc2)CCC1=O`
output: high bracket

input: Class (by measured pIC50) for `CC(=O)Nc1ccc(/C=C/c2cccc(Cl)c2)nn1`
output: low bracket

input: Class (by measured pIC50) for `CN1N=C(C(=O)Nc2cnc(Cc3cccc(F)c3)s2)CCC1=O`
output: low bracket

input: Class (by measured pIC50) for Cn1nc(C(=O)NC2CCC(Oc3cccc(Cl)c3)CC2)ccc1=O (stereo not shown)
output: low bracket

input: Class (by measured pIC50) for `CCn1ccc(C(=O)Nc2ccc(Cc3cccc(Cl)c3)cn2)n1`
output: high bracket
